Target: T1, EsCas13d, nuclease-dead (Eubacterium siraeum, UniProt B0MS50, R295A;H300A;R849A;H854A)
T1 sequence: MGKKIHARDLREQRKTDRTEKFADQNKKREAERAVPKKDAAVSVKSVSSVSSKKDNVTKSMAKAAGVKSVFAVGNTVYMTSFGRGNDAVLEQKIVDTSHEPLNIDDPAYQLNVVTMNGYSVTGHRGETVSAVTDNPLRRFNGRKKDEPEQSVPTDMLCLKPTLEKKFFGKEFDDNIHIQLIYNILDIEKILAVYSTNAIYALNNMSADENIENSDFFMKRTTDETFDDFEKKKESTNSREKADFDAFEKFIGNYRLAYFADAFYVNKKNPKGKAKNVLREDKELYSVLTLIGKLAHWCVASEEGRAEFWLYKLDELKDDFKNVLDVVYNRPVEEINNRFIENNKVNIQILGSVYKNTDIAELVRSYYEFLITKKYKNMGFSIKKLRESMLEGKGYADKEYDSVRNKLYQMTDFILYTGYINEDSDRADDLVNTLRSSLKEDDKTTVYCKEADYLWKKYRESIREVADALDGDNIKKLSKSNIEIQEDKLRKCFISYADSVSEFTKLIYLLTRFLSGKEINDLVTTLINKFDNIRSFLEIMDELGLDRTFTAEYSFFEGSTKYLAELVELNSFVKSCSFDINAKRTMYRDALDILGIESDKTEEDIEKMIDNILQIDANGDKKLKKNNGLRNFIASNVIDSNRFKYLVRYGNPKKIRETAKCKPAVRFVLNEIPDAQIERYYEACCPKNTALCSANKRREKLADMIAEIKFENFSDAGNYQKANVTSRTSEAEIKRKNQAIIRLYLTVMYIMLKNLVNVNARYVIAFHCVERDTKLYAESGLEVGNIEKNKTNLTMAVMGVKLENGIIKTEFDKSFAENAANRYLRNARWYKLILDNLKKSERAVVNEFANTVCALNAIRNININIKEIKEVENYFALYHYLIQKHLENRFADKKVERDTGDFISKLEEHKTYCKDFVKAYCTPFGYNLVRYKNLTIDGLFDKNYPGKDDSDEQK
Test: crRNA (strand 1, pre-loaded); Mg2+; 40 mM Tris-HCl pH 7.5, 150 mM NaCl, 6 mM MgCl2, 1 mM DTT, 0.1% Tween-20, 0.2 mg/ml BSA; 25 C; 10 min per concentration, then washed
Conditions: tags: His6-TwinStrep-SUMO cleaved; N-terminal SNAP kept (SNAP-Surface 488); label: 3' end held by stalled T7 RNA polymerase
Listed here: items and their measured pKd.
The meaning of pKd here: minus log10 of the concentration in molar units.

GET /values?readout=pKd&item= target 1 C6G,U10C (mixed) RNA 1: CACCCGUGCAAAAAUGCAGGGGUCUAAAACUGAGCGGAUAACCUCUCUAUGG RNA 2: GGGAAUGGAUCCACAUCUACGAAUUCGUACCAUAGAGAGGUCAUCGGCUCACCGAGAUCGGAAGAGCACACGU
7.85

GET /values?readout=pKd&item= target 1 insA 3' of 21,insU 3' of 14 (mixed) RNA 1: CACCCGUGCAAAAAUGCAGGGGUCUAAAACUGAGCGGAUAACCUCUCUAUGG RNA 2: GGGAAUGGAUCCACAUCUACGAAUUCGUACCAAUAGAGAUGGUUAUCCGCUCACCGAGAUCGGAAGAGCACACGU
7.31

GET /values?readout=pKd&item= target 3 U2A,U8C (mixed) RNA 1: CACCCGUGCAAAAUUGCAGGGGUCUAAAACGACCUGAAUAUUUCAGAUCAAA RNA 2: GGGAAUGGAUCCACAUCUACGAAUUCGUUUUUGAUCUGAAAUACUCAGGACUGCAGAUCGGAAGAGCACACGU
7.35

GET /values?readout=pKd&item= target 1 A9U,G17A (mixed) RNA 1: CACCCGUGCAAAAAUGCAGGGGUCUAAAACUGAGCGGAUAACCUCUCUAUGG RNA 2: GGGAAUGGAUCCACAUCUACGAAUUCGUACCAUAAAGAGGUUUUCCGCUCACCGAGAUCGGAAGAGCACACGU
7.39

GET /values?readout=pKd&item= target 3 insU 3' of 4 (mixed) RNA 1: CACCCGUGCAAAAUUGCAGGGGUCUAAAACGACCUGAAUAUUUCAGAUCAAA RNA 2: GGGAAUGGAUCCACAUCUACGAAUUCGUUUUUGAUCUGAAAUAUUCAGUGUCUGCAGAUCGGAAGAGCACACGU
8.36

GET /values?readout=pKd&item= target 1 U10A,C22A (mixed) RNA 1: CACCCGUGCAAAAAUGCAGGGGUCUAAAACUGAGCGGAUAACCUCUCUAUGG RNA 2: GGGAAUGGAUCCACAUCUACGAAUUCGUAACAUAGAGAGGUAAUCCGCUCACCGAGAUCGGAAGAGCACACGU
7.90

GET /values?readout=pKd&item= target 1 C6U,C22G (mixed) RNA 1: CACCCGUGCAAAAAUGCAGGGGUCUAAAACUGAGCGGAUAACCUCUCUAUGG RNA 2: GGGAAUGGAUCCACAUCUACGAAUUCGUAGCAUAGAGAGGUUAUCUGCUCACCGAGAUCGGAAGAGCACACGU
7.41

GET /values?readout=pKd&item= target 2 MT 5'PFS AUU 3'PFS UAU (mixed) RNA 1: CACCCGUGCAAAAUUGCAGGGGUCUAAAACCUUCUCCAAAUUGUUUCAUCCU RNA 2: GGGAAUGGAUCCACAUCUACGAAUUCAUUAGGAUGAAACAAUUUGGAGAAGUAUAGAUCGGAAGAGCACACGU
8.25
